System: ATP;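 also: ATP exposure 15 min at 22 °C before imaging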
Assay: switch fluorescence ratio, 500 uM ATP over buffer (Cy3 cluster intensity, sum of 5 cycles each) (fold (ratio)); higher = stronger signal-on switching upon ATP binding; sequences stand for … in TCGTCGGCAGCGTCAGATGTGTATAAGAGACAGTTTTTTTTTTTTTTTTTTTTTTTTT…TC
Conditions: aptamer strand: ATP DNA aptamer (quencher-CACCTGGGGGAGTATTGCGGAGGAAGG + anchor), 100 nM annealed; ATP concentration: 500 uM
Binary classification by switch fluorescence ratio, with 1 as an inclusive lower bound for Satisfied; all other cases are Not satisfied.

TAAATTGATG Satisfied
CCTGTGTAAT Satisfied

In plain terms: is recorded switch fluorescence ratio at least 1 for AAAGAAGTGG ?
Not satisfied

In plain terms: is recorded switch fluorescence ratio at least 1 for TGTTTCTGGT ?
Not satisfied

In plain terms: is recorded switch fluorescence ratio at least 1 for GTCGGATGTG ?
Not satisfied

In plain terms: is recorded switch fluorescence ratio at least 1 for TGAAGTAATC ?
Satisfied

In plain terms: is recorded switch fluorescence ratio at least 1 for GATTTTGTTC ?
Satisfied
